Measured Long-term stability, 2 month, -20°C Accuracy [%] of individual entries
experiment description: Long-term stability in spiked pooled human plasma
measurement context: validation standard ULOV
observable: Long-term stability, 2 month, -20°C Accuracy [%] (%)

compound: CS(=O)(=O)CCNCc1ccc(-c2ccc3ncnc(Nc4ccc(OCc5cccc(F)c5)c(Cl)c4)c3c2)o1
observed result: 101.5
//
compound: O=C1CCC(N2C(=O)c3ccccc3C2=O)C(=O)N1 (centres unmarked) [Thalidomide]
observed result: 42.5
//
compound: Cc1ccc(C(=O)Nc2ccc(CN3CCN(C)CC3)c(C(F)(F)F)c2)cc1C#Cc1cnc2cccnn12
observed result: 97.0
//
compound: CC(=O)Nc1cccc(-n2c(=O)n(C3CC3)c(=O)c3c(Nc4ccc(I)cc4F)n(C)c(=O)c(C)c32)c1
observed result: 119.8
//
compound: CCCS(=O)(=O)Nc1ccc(F)c(C(=O)c2c[nH]c3ncc(-c4ccc(Cl)cc4)cc23)c1F
observed result: 119.0
//
compound: COC(=O)N[C@@H](C)CNc1nccc(-c2cn(C(C)C)nc2-c2cc(Cl)cc(NS(C)(=O)=O)c2F)n1
observed result: 104.0
//
compound: CNCc1ccc(-c2[nH]c3cc(F)cc4c3c2CCNC4=O)cc1
observed result: 104.3
//
compound: CNC(=O)c1ccccc1Sc1ccc2c(/C=C/c3ccccn3)n[nH]c2c1
observed result: 88.8
//
compound: C[C@H]1Oc2cc(cnc2N)-c2c(nn(C)c2C#N)CN(C)C(=O)c2ccc(F)cc21
observed result: 91.4
//
compound: O=C(Nc1cnn2ccc(N3CCC[C@@H]3c3cc(F)ccc3F)nc12)N1CC[C@H](O)C1
observed result: 102.5
//
compound: C=CC(=O)Nc1cc(Nc2nccc(-c3cn(C)c4ccccc34)n2)c(OC)cc1N(C)CCN(C)C
observed result: 91.4
//
compound: CS(=O)(=O)c1ccc(C(=O)Nc2ccc(Cl)c(-c3ccccn3)c2)c(Cl)c1
observed result: 94.5
//
compound: C[C@@H](Oc1cc(-c2cnn(C3CCNCC3)c2)cnc1N)c1c(Cl)ccc(F)c1Cl
observed result: 88.8
//
compound: CN(C)C(=O)c1cc2cnc(Nc3ccc(N4CCNCC4)cn3)nc2n1C1CCCC1
observed result: 98.7
//
compound: COc1cc2ncnc(Nc3ccc(F)c(Cl)c3)c2cc1OCCCN1CCOCC1
observed result: 99.2
//
compound: N#CC[C@H](C1CCCC1)n1cc(-c2ncnc3[nH]ccc23)cn1
observed result: 95.3
//
compound: Cc1cc(Nc2ncc(Cl)c(Nc3ccccc3S(=O)(=O)C(C)C)n2)c(OC(C)C)cc1C1CCNCC1
observed result: 99.1

----------
Measured Long-term stability, 3 month, -20°C Accuracy [%] of individual entries
experiment description: Long-term stability in spiked pooled human plasma
measurement context: validation standard MOV
observable: Long-term stability, 3 month, -20°C Accuracy [%] (%)

compound: O=C1CCC(N2C(=O)c3ccccc3C2=O)C(=O)N1 (centres unmarked) [Thalidomide]
observed result: 50.8
//
compound: Cn1cnc2c(F)c(Nc3ccc(Br)cc3F)c(C(=O)NOCCO)cc21 [Binimetinib]
observed result: 97.9
//
compound: CC(=O)Nc1cccc(-n2c(=O)n(C3CC3)c(=O)c3c(Nc4ccc(I)cc4F)n(C)c(=O)c(C)c32)c1 [Trametinib]
observed result: 102.9
//
compound: Cc1[nH]c2ccccc2c1CCNCc1ccc(/C=C/C(=O)NO)cc1 [Panobinostat]
observed result: 66.1
//
compound: COC(=O)N[C@@H](C)CNc1nccc(-c2cn(C(C)C)nc2-c2cc(Cl)cc(NS(C)(=O)=O)c2F)n1 [Encorafenib]
observed result: 101.8
//
compound: CCc1cc2c(cc1N1CCC(N3CCOCC3)CC1)C(C)(C)c1[nH]c3cc(C#N)ccc3c1C2=O [Alectinib]
observed result: 88.4
//
compound: COc1cc2c(Nc3ccc(Br)cc3F)ncnc2cc1OCC1CCN(C)CC1 [Vandetanib]
observed result: 105.3
//
compound: CCOc1cc2ncc(C#N)c(Nc3ccc(OCc4ccccn4)c(Cl)c3)c2cc1NC(=O)/C=C/CN(C)C [Neratinib]
observed result: 79.5

----------
experiment description: Freeze-thaw stability in spiked pooled human plasma
Type: physicochemical
measurement context: validation standard LLOV
observable: Freeze-Thaw Accuracy [%] (%)

compound: C[C@H]1Oc2cc(cnc2N)-c2c(nn(C)c2C#N)CN(C)C(=O)c2ccc(F)cc21
observed result: 96.0
--
compound: COc1cc(N2CCC(N3CCN(C)CC3)CC2)ccc1Nc1ncc(Cl)c(Nc2ccccc2P(C)(C)=O)n1
observed result: 111.4
--
compound: CC(C)(C)c1nc(-c2cccc(NS(=O)(=O)c3c(F)cccc3F)c2F)c(-c2ccnc(N)n2)s1
observed result: 93.9
--
compound: CCN(CC)CCNC(=O)c1c(C)[nH]c(/C=C2\C(=O)Nc3ccc(F)cc32)c1C
observed result: 117.0
--
compound: Cn1cnc2c(F)c(Nc3ccc(Br)cc3F)c(C(=O)NOCCO)cc21
observed result: 93.8
--
compound: O=C(Nc1cnn2ccc(N3CCC[C@@H]3c3cc(F)ccc3F)nc12)N1CC[C@H](O)C1
observed result: 97.9
--
compound: COc1cc2ncnc(Nc3ccc(F)c(Cl)c3)c2cc1OCCCN1CCOCC1
observed result: 92.4
--
compound: CCCS(=O)(=O)Nc1ccc(F)c(C(=O)c2c[nH]c3ncc(-c4ccc(Cl)cc4)cc23)c1F
observed result: 101.9
--
compound: CNC(=O)c1ccc(N2C(=S)N(c3cnc(C#N)c(C(F)(F)F)c3)C(=O)C23CCC3)cc1F [Apalutamide]
observed result: 93.8

----------
experiment description: Long-term stability in spiked pooled human plasma
measurement context: validation standard MOV
Measured Long-term stability, 3 month, -80°C Accuracy [%] of individual entries
observable: Long-term stability, 3 month, -80°C Accuracy [%] (%)

molecule: O=C1CN2Cc3c(ccc(Cl)c3Cl)N=C2N1 [Anagrelide]
observed result: 95.1
--
molecule: O=C(c1cc(Cc2n[nH]c(=O)c3ccccc23)ccc1F)N1CCN(C(=O)C2CC2)CC1
observed result: 96.7
--
molecule: Cc1cc(Nc2ncc(Cl)c(Nc3ccccc3S(=O)(=O)C(C)C)n2)c(OC(C)C)cc1C1CCNCC1
observed result: 95.7
--
molecule: Nc1cccc2c1C(=O)N(C1CCC(=O)NC1=O)C2=O (centres unmarked) [Pomalidomide]
observed result: 94.9
--
molecule: CS(=O)(=O)CCNCc1ccc(-c2ccc3ncnc(Nc4ccc(OCc5cccc(F)c5)c(Cl)c4)c3c2)o1
observed result: 101.0
--
molecule: CC(C)(C)c1nc(-c2cccc(NS(=O)(=O)c3c(F)cccc3F)c2F)c(-c2ccnc(N)n2)s1
observed result: 98.0
--
molecule: CNC(=O)c1cc(Oc2ccc(NC(=O)Nc3ccc(Cl)c(C(F)(F)F)c3)cc2)ccn1
observed result: 100.4
--
molecule: CS(=O)(=O)c1ccc(C(=O)Nc2ccc(Cl)c(-c3ccccn3)c2)c(Cl)c1
observed result: 100.9

----------
Measured Long-term stability, 3 month, -20°C Accuracy [%] of individual entries
experiment description: Long-term stability in spiked pooled human plasma
measurement context: validation standard ULOV
observable: Long-term stability, 3 month, -20°C Accuracy [%] (%)

compound: CNC(=O)c1cc(Oc2ccc(NC(=O)Nc3ccc(Cl)c(C(F)(F)F)c3)c(F)c2)ccn1
observed result: 92.9

compound: O=C(Nc1cnn2ccc(N3CCC[C@@H]3c3cc(F)ccc3F)nc12)N1CC[C@H](O)C1
observed result: 97.8

compound: Cc1nc(Nc2ncc(C(=O)Nc3c(C)cccc3Cl)s2)cc(N2CCN(CCO)CC2)n1
observed result: 104.5

compound: CNC(=O)c1ccc(N2C(=S)N(c3ccc(C#N)c(C(F)(F)F)c3)C(=O)C2(C)C)cc1F [Enzalutamide]
observed result: 87.7

compound: CN(C)C/C=C/C(=O)Nc1cc2c(Nc3ccc(F)c(Cl)c3)ncnc2cc1O[C@H]1CCOC1
observed result: 82.8

compound: COc1cc2ncnc(Nc3ccc(F)c(Cl)c3)c2cc1NC(=O)/C=C/CN1CCCCC1
observed result: 90.3

compound: C[C@@H](Oc1cc(-c2cnn(C3CCNCC3)c2)cnc1N)c1c(Cl)ccc(F)c1Cl
observed result: 88.4

compound: CCOc1cc2ncc(C#N)c(Nc3ccc(OCc4ccccn4)c(Cl)c3)c2cc1NC(=O)/C=C/CN(C)C
observed result: 75.5

compound: O=c1[nH]c(=O)n([C@H]2C[C@H](O)[C@@H](CO)O2)cc1C(F)(F)F
observed result: 82.1

compound: Cc1ccc(C(=O)Nc2ccc(CN3CCN(C)CC3)c(C(F)(F)F)c2)cc1C#Cc1cnc2cccnn12
observed result: 93.8

compound: COC(=O)N[C@@H](C)CNc1nccc(-c2cn(C(C)C)nc2-c2cc(Cl)cc(NS(C)(=O)=O)c2F)n1
observed result: 100.7

compound: CNCc1ccc(-c2[nH]c3cc(F)cc4c3c2CCNC4=O)cc1
observed result: 100.6

compound: COc1cc2nccc(Oc3ccc(NC(=O)Nc4cc(C)on4)c(Cl)c3)c2cc1OC
observed result: 96.3

compound: COC(=O)c1ccc2c(c1)NC(=O)/C2=C(\Nc1ccc(N(C)C(=O)CN2CCN(C)CC2)cc1)c1ccccc1
observed result: 92.9

compound: CNC(=O)c1ccc(N2C(=S)N(c3cnc(C#N)c(C(F)(F)F)c3)C(=O)C23CCC3)cc1F [Apalutamide]
observed result: 78.8

compound: O=C(c1cc(Cc2n[nH]c(=O)c3ccccc23)ccc1F)N1CCN(C(=O)C2CC2)CC1
observed result: 98.9
